pKi: −log10 of the molar value.
These compounds were tested on Muscarinic acetylcholine receptor M3 (Homo sapiens); pKi is the recorded read-out.
Sequence (P20309 whole entry): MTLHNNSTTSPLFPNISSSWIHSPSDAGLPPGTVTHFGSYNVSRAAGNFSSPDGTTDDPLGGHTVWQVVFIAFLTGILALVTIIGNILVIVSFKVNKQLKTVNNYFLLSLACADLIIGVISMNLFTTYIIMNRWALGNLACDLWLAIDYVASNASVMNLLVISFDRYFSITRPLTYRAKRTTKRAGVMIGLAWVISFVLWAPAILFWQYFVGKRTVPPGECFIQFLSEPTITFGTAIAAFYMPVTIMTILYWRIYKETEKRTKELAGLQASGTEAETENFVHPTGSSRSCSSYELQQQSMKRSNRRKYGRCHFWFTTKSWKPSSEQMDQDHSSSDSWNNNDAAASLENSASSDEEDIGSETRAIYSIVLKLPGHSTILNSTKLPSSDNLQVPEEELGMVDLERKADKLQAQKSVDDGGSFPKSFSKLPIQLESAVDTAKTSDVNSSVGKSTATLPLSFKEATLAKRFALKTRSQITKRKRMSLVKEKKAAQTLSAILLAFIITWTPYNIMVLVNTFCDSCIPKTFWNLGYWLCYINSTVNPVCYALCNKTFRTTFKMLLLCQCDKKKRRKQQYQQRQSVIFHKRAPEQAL

{"columns": ["recordSmiles", "pKi"],
 "data": [
  ["CCN(CCCCC1CCN(CC(=O)N2c3ccccc3NC(=O)c3ccccc32)CC1)C(=O)c1ccc(F)cc1", 7.33],
  ["CCN(CCCCC1CCN(CC(=O)N2c3ccccc3NC(=O)c3ccccc32)CC1)C(=O)c1cccc(I)c1", 7.47],
  ["CCN(CCCCC1CCN(CC(=O)N2c3ccccc3C(=O)N(C(=O)c3ccc(F)cc3)c3ccccc32)CC1)C(=O)c1ccc(F)cc1", 7.10]
]}
